The compounds listed here are annotated with their Kb.
# Tested on: Delta-type opioid receptor (Mus musculus)
# Sequence (P32300 whole entry): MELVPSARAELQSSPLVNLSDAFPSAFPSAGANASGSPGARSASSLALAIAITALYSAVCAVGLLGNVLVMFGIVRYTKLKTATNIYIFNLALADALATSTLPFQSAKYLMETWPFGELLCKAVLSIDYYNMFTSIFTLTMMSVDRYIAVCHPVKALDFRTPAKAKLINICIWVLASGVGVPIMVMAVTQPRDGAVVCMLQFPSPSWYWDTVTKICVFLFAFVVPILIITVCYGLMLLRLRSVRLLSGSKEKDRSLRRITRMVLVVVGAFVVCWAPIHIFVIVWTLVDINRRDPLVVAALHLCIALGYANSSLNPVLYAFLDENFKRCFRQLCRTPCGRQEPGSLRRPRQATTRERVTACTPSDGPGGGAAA
# Experiment description: Antagonist activity against deltorphin in mouse vas deferens assay
# Format: functional, tissue-based
# Study conditions: read-out: pA2 (converted)
Answer as a quantity: numeral, then unit.

Worked cases, Kb given:
1. Cc1cc(O)cc(C)c1C[C@H](N)C(=O)N1Cc2ccccc2C[C@H]1C(=O)NC(CCCCN)C(N)=O (single isomer, unassigned); 13.5 nM
2. Cc1cc(O)cc(C)c1C[C@H](N)C(=O)N1Cc2ccccc2C[C@H]1C(=O)N[C@@H](CCC(N)=O)C(=O)O; 1.05 nM

## Task Would you kindly share the measured Kb for `Cc1cc(O)cc(C)c1C[C@H](N)C(=O)N1Cc2ccccc2C[C@H]1C(=O)N[C@H](CCC(=O)O)C(N)=O` ?
## Result 2.29 nM

## Task Subsequent entry: Cc1cc(O)cc(C)c1C[C@H](N)C(=O)N1Cc2ccccc2C[C@H]1C(=O)NC(CCCN=C(N)N)C(N)=O (single isomer, unassigned)
## Result 126 nM

###

# Tested on: UniProt:P97266
# Experiment description: Inhibition of Opioid receptor mu 1 in guinea pig ileum assay
Result type: IC50

1) Cc1cc(O)cc(C)c1C[C@H](N)C(=O)N1Cc2ccccc2C[C@H]1C(=O)NC(CO)C(N)=O (single isomer, unassigned); > 10 µM

## Task // fetch UniProt:P97266 IC50 for `Cc1cc(O)cc(C)c1C[C@H](N)C(=O)N1Cc2ccccc2C[C@H]1C(=O)N[C@H](CC(N)=O)C(=O)O`
## Result > 10 µM

## Task Subsequent entry: Cc1cc(O)cc(C)c1C[C@H](N)C(=O)N1Cc2ccccc2C[C@H]1C(=O)NC(Cc1c[nH]cn1)C(=O)O (single isomer, unassigned)
## Result > 10 µM

## Task Subsequent entry: `Cc1cc(O)cc(C)c1C[C@H](N)C(=O)N1Cc2ccccc2C[C@H]1C(=O)N[C@@H](C)C(=O)O`
## Result > 10 µM

###

# Experiment description: Binding affinity for rat Opioid receptor mu 1
Square brackets hold non-standard residues; d marks the D form. Peptide text beside a SMILES is read from it. Dmt = Cc1cc(O)cc(C)c1C[C@H](N)C(=O)O; Tic = O=C(O)[C@@H]1Cc2ccccc2CN1
# strict inequality: Ki < 0.1 µM yields true, everything else yields false

1) Cc1cc(O)cc(C)c1C[C@H](N)C(=O)N1Cc2ccccc2C[C@H]1C(=O)N[C@@H](Cc1c[nH]c2ccccc12)C(=O)O (H-[Dmt]-[Tic]-Trp-OH); true
2) Cc1cc(O)cc(C)c1C[C@H](N)C(=O)N1Cc2ccccc2C[C@H]1C(=O)NC(C)C(N)=O (stereo in doubt); true
3) Cc1cc(O)cc(C)c1C[C@H](N)C(=O)N1Cc2ccccc2C[C@H]1C(=O)N[C@H](CC(N)=O)C(=O)O; false
4) Cc1cc(O)cc(C)c1C[C@H](N)C(=O)N1Cc2ccccc2C[C@H]1C(=O)NC(CO)C(N)=O (single isomer, unassigned); false

## Task Given `Cc1cc(O)cc(C)c1C[C@H](N)C(=O)N1Cc2ccccc2C[C@H]1C(=O)N[C@@H](CCC(N)=O)C(=O)O` , is recorded Ki strictly lower than 0.1 µM?
## Result false

###

# Tested on: Mu-type opioid receptor (Cavia porcellus, UniProt P97266)
# Sequence (P97266 whole entry): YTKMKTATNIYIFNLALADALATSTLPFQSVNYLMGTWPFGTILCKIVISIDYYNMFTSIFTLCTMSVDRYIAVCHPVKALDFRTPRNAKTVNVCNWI
# Experiment description: Inhibition of Opioid receptor mu 1 in guinea pig ileum assay
pIC50: −log10 of the molar value. Square brackets hold non-standard residues; d marks the D form. Peptide text beside a SMILES is read from it. Dmt = Cc1cc(O)cc(C)c1C[C@H](N)C(=O)O; Tic = O=C(O)[C@@H]1Cc2ccccc2CN1
The compounds listed here are annotated with their pIC50.

1. CC(=O)NCCCC[C@@H](NC(=O)[C@@H]1Cc2ccccc2CN1C(=O)[C@@H](N)Cc1c(C)cc(O)cc1C)C(=O)O; 5.82
2. CC(=O)NCCCC[C@H](NC(=O)[C@@H]1Cc2ccccc2CN1C(=O)[C@@H](N)Cc1c(C)cc(O)cc1C)C(=O)O; < 5.00
3. Cc1cc(O)cc(C)c1C[C@H](N)C(=O)N1Cc2ccccc2C[C@H]1C(=O)NC(CCCCN)C(N)=O (single isomer, unassigned); 5.10
4. Cc1cc(O)cc(C)c1C[C@H](N)C(=O)N1Cc2ccccc2C[C@H]1C(=O)N[C@H](CCC(N)=O)C(=O)O; < 5.00
5. Cc1cc(O)cc(C)c1C[C@H](N)C(=O)N1Cc2ccccc2C[C@H]1C(=O)NC(C)C(N)=O (stereo in doubt); < 5.00
6. Cc1cc(O)cc(C)c1C[C@H](N)C(=O)N1Cc2ccccc2C[C@H]1C(=O)NC(CCCN=C(N)N)C(N)=O (single isomer, unassigned); 5.18
7. Cc1cc(O)cc(C)c1C[C@H](N)C(=O)N1Cc2ccccc2C[C@H]1C(=O)NC(CO)C(=O)O (single isomer, unassigned); < 5.00
8. Cc1cc(O)cc(C)c1C[C@H](N)C(=O)N1Cc2ccccc2C[C@H]1C(=O)N[C@@H](CC(=O)O)C(N)=O; < 5.00
9. Cc1cc(O)cc(C)c1C[C@H](N)C(=O)N1Cc2ccccc2C[C@H]1C(=O)N[C@@H](CCC(N)=O)C(=O)O; < 5.00
10. Cc1cc(O)cc(C)c1C[C@H](N)C(=O)N1Cc2ccccc2C[C@H]1C(=O)N[C@@H](CC(N)=O)C(=O)O; < 5.00

## Task // fetch Mu-type opioid receptor (Cavia porcellus, UniProt P97266) pIC50 for `Cc1cc(O)cc(C)c1C[C@H](N)C(=O)N1Cc2ccccc2C[C@H]1C(=O)N[C@H](CC(=O)O)C(N)=O`
## Result < 5.00

## Task Subsequent entry: Cc1cc(O)cc(C)c1C[C@H](N)C(=O)N1Cc2ccccc2C[C@H]1C(=O)N[C@@H](Cc1c[nH]c2ccccc12)C(=O)O (H-[Dmt]-[Tic]-Trp-OH)
## Result 5.82

## Task Subsequent entry: Cc1cc(O)cc(C)c1C[C@H](N)C(=O)N1Cc2ccccc2C[C@H]1C(=O)NCC(N)=O (H-[Dmt]-[Tic]-Gly-NH2)
## Result < 5.00

###

# Experiment description: Binding affinity for rat Opioid receptor mu 1
The compounds listed here are annotated with their pKi.
pKi field: float, defined as -log10 of concentration (mol/L).

1. Cc1cc(O)cc(C)c1C[C@H](N)C(=O)N1Cc2ccccc2C[C@H]1C(=O)N[C@H](CCC(=O)O)C(N)=O; 6.04
2. Cc1cc(O)cc(C)c1C[C@H](N)C(=O)N1Cc2ccccc2C[C@H]1C(=O)N[C@@H](CCC(=O)O)C(N)=O; 5.87
3. CC(=O)NCCCC[C@@H](NC(=O)[C@@H]1Cc2ccccc2CN1C(=O)[C@@H](N)Cc1c(C)cc(O)cc1C)C(=O)O; 7.06

## Task Would you kindly share the measured pKi for Cc1cc(O)cc(C)c1C[C@H](N)C(=O)N1Cc2ccccc2C[C@H]1C(=O)NC(CCCN=C(N)N)C(N)=O (single isomer, unassigned) ?
## Result 7.82

## Task Subsequent entry: Cc1cc(O)cc(C)c1C[C@H](N)C(=O)N1Cc2ccccc2C[C@H]1C(=O)NC(CO)C(=O)O (single isomer, unassigned)
## Result 5.55

## Task Subsequent entry: `Cc1cc(O)cc(C)c1C[C@H](N)C(=O)N1Cc2ccccc2C[C@H]1C(=O)N[C@H](CCC(N)=O)C(=O)O`
## Result 6.25

## Task Subsequent entry: `Cc1cc(O)cc(C)c1C[C@H](N)C(=O)N1Cc2ccccc2C[C@H]1C(=O)N[C@@H](C)C(=O)O`
## Result 5.24

###

# Experiment description: Binding affinity for rat Opioid receptor delta 1
Square brackets hold non-standard residues; d marks the D form. Peptide text beside a SMILES is read from it. Dmt = Cc1cc(O)cc(C)c1C[C@H](N)C(=O)O; Tic = O=C(O)[C@@H]1Cc2ccccc2CN1
Result type: pKi
pKi field: float, defined as -log10 of concentration (mol/L).

Worked cases, pKi given:
1. Cc1cc(O)cc(C)c1C[C@H](N)C(=O)N1Cc2ccccc2C[C@H]1C(=O)NC(CO)C(N)=O (single isomer, unassigned); 9.89
2. Cc1cc(O)cc(C)c1C[C@H](N)C(=O)N1Cc2ccccc2C[C@H]1C(=O)NCC(N)=O (H-[Dmt]-[Tic]-Gly-NH2); 9.60
3. Cc1cc(O)cc(C)c1C[C@H](N)C(=O)N1Cc2ccccc2C[C@H]1C(=O)N[C@@H](C)C(=O)O; 9.54

## Task Would you kindly share the measured pKi for `Cc1cc(O)cc(C)c1C[C@H](N)C(=O)N1Cc2ccccc2C[C@H]1C(=O)N[C@@H](CC(=O)O)C(N)=O` ?
## Result 9.54
